Origin of values: paper PMC5540273

Please go through the items and note down their %Inh.
tested on: ERK5; construct: gene MAPK7; details: concentration: 1 μM, replicates: in singlicate; n = 1;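 note: KINOMEscan kinase panel screen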
Express it in %; write the number only.

// %Inh lookup, molecule = CC(=O)Nc1ccc(COc2ccc(Nc3ccnc4cc(-c5ccccn5)ccc34)cc2)cc1.Cl [GW440148] , result: 14

// %Inh lookup, molecule = O=C(Nc1n[nH]c2cc(-c3cccc(F)c3)ccc12)C1CC1 [SB-735464] , result: 8

// %Inh lookup, molecule = NCCNS(=O)(=O)c1ccc(-c2ccnc3[nH]ccc23)cc1 [GSK977617] , result: 0

// %Inh lookup, molecule = COC(=O)Nc1nc2cc(Oc3ccc(NC(=O)Nc4cc(F)ccc4F)cc3)ccc2[nH]1.Cl [GW701424] , result: 0

// %Inh lookup, molecule = Cc1cccc(-c2nc(Nc3ccc4ncsc4c3)c3ccccc3n2)n1 [GW867588] , result: 0

// %Inh lookup, molecule = O=C(NCCNc1ccnc(Nc2ccc(F)cc2)n1)Nc1ccccc1F [GSK1379880] , result: 0

// %Inh lookup, molecule = Cc1ccc(NC(=O)c2ccnc(N3CCN(C)CC3)c2)cc1-c1ccc(C(=O)NCC2CC2)cc1 [GW775604] , result: 0

// %Inh lookup, molecule = O=C(Nc1cccc(-c2nn3ncccc3c2-c2ccnc(Nc3cccc(C(F)(F)F)c3)n2)c1)c1c(F)cccc1F [GSK299495] , result: 0

// %Inh lookup, molecule = Cc1nnc(-c2ccc3occ(-c4ccc(C(C)O)cc4)c3c2)o1 (stereo not shown) , result: 7

// %Inh lookup, molecule = COc1ccc(CNC(=O)NC2CCN(c3ccnc(Nc4ccc(OC)cc4)n3)C2)cc1 (stereo not shown) [GSK1379727] , result: 0

// %Inh lookup, molecule = COc1cc(Nc2nccc(N3CCC(NC(=O)c4cccc(NC(C)=O)c4)C3)n2)cc(OC)c1OC (stereo not shown) [GSK1379754] , result: 0

// %Inh lookup, molecule = `CN1c2ccc(NCc3ccc(F)cc3)cc2-c2c(cnn2C)S1(=O)=O` , result: 3

// %Inh lookup, molecule = N#Cc1ccc(-c2cc(-c3c[nH]nc3-c3ccccn3)ccn2)cc1 [GW693028] , result: 0

// %Inh lookup, molecule = NCC(NC(=O)c1cc(-c2cn[nH]c2)c(-c2ccnc3[nH]ccc23)s1)c1ccccc1.O=C(O)C(F)(F)F.O=C(O)C(F)(F)F (stereo not shown) [GSK1325775] , result: 0

// %Inh lookup, molecule = Cc1c(Cn2c(C)nn3c(=O)cc(N4CCOC(C)C4)nc23)cccc1C(F)(F)F (stereo not shown) [GSK2344444] , result: 0

// %Inh lookup, molecule = CNc1ncnc2[nH]ncc12 [SKF-18355] , result: 0

// %Inh lookup, molecule = COc1ccc(Nc2ncc(C#N)c(Nc3ccccc3C(N)=O)n2)cc1N1CCN(C)CC1.Cl [GSK1558669] , result: 99.9

// %Inh lookup, molecule = COc1ccc(S(=O)(=O)NC2CCN(c3cc(C)nc(Nc4cccc(C#N)c4)n3)CC2)cc1.O=C(O)C(F)(F)F [GSK1653539] , result: 0

// %Inh lookup, molecule = c1ccc(-c2n[nH]cc2-c2ccnc3ccccc23)nc1 [GW271431] , result: 0

// %Inh lookup, molecule = Fc1ccc(-c2nn3c(OCC(F)(F)F)cccc3c2-c2ccncc2)cc1 [GW514784] , result: 0

// %Inh lookup, molecule = COc1cc2ncn(-c3cc(OCc4sccc4Cl)c(C(N)=O)s3)c2cc1OC [GSK448459] , result: 0

// %Inh lookup, molecule = `COc1cc2c(cc1OC[C@@H](O)CO)ncc1c3ccc(C#N)cc3[nH]c21` , result: 0

// %Inh lookup, molecule = `COc1cc2c(cc1OCCN1CCN(C)CC1)ncc1c3ccc(C#N)cc3[nH]c21` , result: 22

// %Inh lookup, molecule = Cc1nnc(-c2ccc(C)c(-c3ccc(C(=O)Nc4ccc(NS(C)(=O)=O)cc4)cc3)c2)o1 [GW702865] , result: 0

// %Inh lookup, molecule = O=c1cc(N2CCOCC2)nc2n(Cc3cccc(Cl)c3Cl)c(C3CC3)nn12 [GSK2358994] , result: 0

// %Inh lookup, molecule = O=C(c1ccc(-c2cc(-c3c[nH]nc3-c3ccccn3)ccn2)cc1)N1CCOCC1 [GW812171] , result: 0

// %Inh lookup, molecule = O=C(NCCCN1CCOCC1)c1cccc(Nc2nccc(Nc3ccc(Oc4ccccc4)cc3)n2)c1 [GW663929] , result: 27

// %Inh lookup, molecule = COc1ccc(Nc2nccc(N3CCC(NC(=O)Nc4cccc(C(C)=O)c4)C3)n2)cc1 (stereo not shown) [GSK1379731] , result: 0

// %Inh lookup, molecule = `CSc1ccc(-c2cc3ncnc(SCC(=O)O)c3s2)cc1` , result: 2

// %Inh lookup, molecule = O=c1cc(N2CCOCC2)nc2n(Cc3cccc(F)c3)ccn12 [GSK2297430] , result: 0

// %Inh lookup, molecule = Nc1nc(-c2ccc3c(N)n[nH]c3c2)cc(N2CCCC2)n1 [GSK2227430] , result: 0

// %Inh lookup, molecule = O=C1NC(=O)C(N2CCc3ccccc32)=C1c1cccc(Cl)c1 [SB-408010] , result: 0

// %Inh lookup, molecule = CN(C1=C(c2ccccc2)C(=O)NC1=O)c1ccccc1 [SB-334860] , result: 0

// %Inh lookup, molecule = Cc1nnc(-c2ccc3ncc(-c4ccc(S(C)=O)cc4)n3c2)o1 (stereo not shown) , result: 0
